- System: ATP;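 also: ATP exposure 15 min at 22 °C before imaging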
- protocol summary: switch fluorescence ratio, 500 uM ATP over buffer (Cy3 cluster intensity, sum of 5 cycles each) (fold (ratio)); higher = stronger signal-on switching upon ATP binding; sequences stand for … in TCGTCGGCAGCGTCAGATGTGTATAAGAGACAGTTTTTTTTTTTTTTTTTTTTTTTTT…TC
- run parameters: aptamer strand: ATP DNA aptamer (quencher-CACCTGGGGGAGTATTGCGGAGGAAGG + anchor), 100 nM annealed; ATP concentration: 500 uM
The label depends only on switch fluorescence ratio: class 1 if it is at least 1, class 0 if it is smaller.

{"ordered residues": "GCTAACCGTA", "assigned label": "class 1"}
{"ordered residues": "TCCGGGGGTG", "assigned label": "class 1"}
{"ordered residues": "TCAAACGTAT", "assigned label": "class 1"}
{"ordered residues": "TTTCTAGTCT", "assigned label": "class 0"}
{"ordered residues": "GCGACGAGGG", "assigned label": "class 1"}
{"ordered residues": "TCGTGACGAA", "assigned label": "class 1"}
{"ordered residues": "GACGCATGGT", "assigned label": "class 1"}
{"ordered residues": "GTTCTATCAT", "assigned label": "class 0"}
{"ordered residues": "AATCAAAAAG", "assigned label": "class 0"}
{"ordered residues": "GGTGGAGGAA", "assigned label": "class 1"}
{"ordered residues": "TTAGTCAATT", "assigned label": "class 0"}
{"ordered residues": "AAATTATGGA", "assigned label": "class 0"}
{"ordered residues": "TTTCACGGTA", "assigned label": "class 1"}
{"ordered residues": "GACTGCTATA", "assigned label": "class 1"}
{"ordered residues": "AGTAAAGTTC", "assigned label": "class 1"}
{"ordered residues": "CATTGTTTTG", "assigned label": "class 0"}
{"ordered residues": "CCTGCGGGGA", "assigned label": "class 1"}
{"ordered residues": "GTTAGCTAGG", "assigned label": "class 1"}
{"ordered residues": "GGGCTAGTCA", "assigned label": "class 0"}

---

- Tested on: ATP;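 also: ATP exposure 15 min at 22 °C before imaging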
- protocol summary: switch fluorescence ratio, 500 uM ATP over buffer (Cy3 cluster intensity, sum of 5 cycles each) (fold (ratio)); higher = stronger signal-on switching upon ATP binding; sequences stand for … in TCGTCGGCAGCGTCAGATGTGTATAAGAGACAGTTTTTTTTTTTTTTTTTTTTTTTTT…TC
- run parameters: aptamer strand: ATP DNA aptamer (quencher-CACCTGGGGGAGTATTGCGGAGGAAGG + anchor), 100 nM annealed; ATP concentration: 500 uM
# reported switch fluorescence ratio; entries follow

{"ordered residues": "TGGGATGATG", "target desc": "ATP", "switch fluorescence ratio": 1.01}
{"ordered residues": "AGTATGTGCT", "target desc": "ATP", "switch fluorescence ratio": 0.965}
{"ordered residues": "ATCTTCAGGT", "target desc": "ATP", "switch fluorescence ratio": 0.995}
{"ordered residues": "ACCGTAGGGG", "target desc": "ATP", "switch fluorescence ratio": 0.973}
{"ordered residues": "TGGGGACACT", "target desc": "ATP", "switch fluorescence ratio": 1.02}
{"ordered residues": "TCATTGTTTT", "target desc": "ATP", "switch fluorescence ratio": 1.01}
{"ordered residues": "AAATGGGGAT", "target desc": "ATP", "switch fluorescence ratio": 1.01}
{"ordered residues": "ATTAGGGGCC", "target desc": "ATP", "switch fluorescence ratio": 0.976}
{"ordered residues": "TCTGAGTTCA", "target desc": "ATP", "switch fluorescence ratio": 0.987}
{"ordered residues": "GGGGTATGGC", "target desc": "ATP", "switch fluorescence ratio": 1.03}
{"ordered residues": "AAGGAATCGC", "target desc": "ATP", "switch fluorescence ratio": 1}
{"ordered residues": "CGGCGGGAGT", "target desc": "ATP", "switch fluorescence ratio": 1.02}
{"ordered residues": "GACAGGGGCT", "target desc": "ATP", "switch fluorescence ratio": 1.06}
{"ordered residues": "AGTTAGGGGC", "target desc": "ATP", "switch fluorescence ratio": 0.995}
{"ordered residues": "TGTCGCTGGG", "target desc": "ATP", "switch fluorescence ratio": 1.02}
{"ordered residues": "GACGAGGGAT", "target desc": "ATP", "switch fluorescence ratio": 1.1}
{"ordered residues": "TTTGTCATTT", "target desc": "ATP", "switch fluorescence ratio": 0.98}
{"ordered residues": "TTAGTTTTCG", "target desc": "ATP", "switch fluorescence ratio": 1.01}
{"ordered residues": "AGCATTACGT", "target desc": "ATP", "switch fluorescence ratio": 2.02}
{"ordered residues": "CTTGGGGATC", "target desc": "ATP", "switch fluorescence ratio": 0.979}
{"ordered residues": "GATTTGGCTG", "target desc": "ATP", "switch fluorescence ratio": 0.986}
{"ordered residues": "CGATCTTGTG", "target desc": "ATP", "switch fluorescence ratio": 0.988}
{"ordered residues": "TGGGGCGCTA", "target desc": "ATP", "switch fluorescence ratio": 1.07}
{"ordered residues": "CTGGGTTGGT", "target desc": "ATP", "switch fluorescence ratio": 0.972}
{"ordered residues": "TTTGTCCTTT", "target desc": "ATP", "switch fluorescence ratio": 1.03}
{"ordered residues": "GGGGGGGCAA", "target desc": "ATP", "switch fluorescence ratio": 1.24}
{"ordered residues": "GGTGTTAAAC", "target desc": "ATP", "switch fluorescence ratio": 1.01}
{"ordered residues": "GAGTGAAGGT", "target desc": "ATP", "switch fluorescence ratio": 0.996}
{"ordered residues": "CTCGGGTATG", "target desc": "ATP", "switch fluorescence ratio": 0.979}
{"ordered residues": "GCTGTGAGTT", "target desc": "ATP", "switch fluorescence ratio": 0.982}
{"ordered residues": "GCCGGGAAAC", "target desc": "ATP", "switch fluorescence ratio": 1.04}
{"ordered residues": "TTTCCTATAA", "target desc": "ATP", "switch fluorescence ratio": 1.13}
{"ordered residues": "GAAGGAGTGG", "target desc": "ATP", "switch fluorescence ratio": 1.03}
{"ordered residues": "TTTCTACGTA", "target desc": "ATP", "switch fluorescence ratio": 1.13}
{"ordered residues": "GTCATCAGTG", "target desc": "ATP", "switch fluorescence ratio": 1.02}

---

- Test system: ATP;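 also: ATP exposure 15 min at 22 °C before imaging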
- protocol summary: switch fluorescence ratio, 500 uM ATP over buffer (Cy3 cluster intensity, sum of 5 cycles each) (fold (ratio)); higher = stronger signal-on switching upon ATP binding; sequences stand for … in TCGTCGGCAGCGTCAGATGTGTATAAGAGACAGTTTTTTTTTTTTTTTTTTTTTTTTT…TC
- run parameters: aptamer strand: ATP DNA aptamer (quencher-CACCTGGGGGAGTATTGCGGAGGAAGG + anchor), 100 nM annealed; ATP concentration: 500 uM
Label scheme for switch fluorescence ratio: lower than 1 is label 0, 1 and above is label 1.

{"ordered residues": "GGGGGATGTA", "assigned label": "label 0"}
{"ordered residues": "TTATGGAGCA", "assigned label": "label 1"}
{"ordered residues": "CTAACGTATA", "assigned label": "label 1"}
{"ordered residues": "CAAGAATCTG", "assigned label": "label 0"}
{"ordered residues": "ACGCTAAATA", "assigned label": "label 1"}
{"ordered residues": "GGGCGGCGGG", "assigned label": "label 1"}
{"ordered residues": "GGTCCAGTGT", "assigned label": "label 1"}
{"ordered residues": "ACGCGGACAC", "assigned label": "label 1"}
{"ordered residues": "TTTGGAGGTG", "assigned label": "label 1"}
{"ordered residues": "ACCTACGAGT", "assigned label": "label 1"}
{"ordered residues": "CCGCATTTTT", "assigned label": "label 1"}
{"ordered residues": "TCACCTTATT", "assigned label": "label 1"}
{"ordered residues": "GGGGGCTAAG", "assigned label": "label 1"}
{"ordered residues": "ATACGGCATG", "assigned label": "label 1"}
{"ordered residues": "GGGGAACGTT", "assigned label": "label 0"}
{"ordered residues": "TCGGGGAAAG", "assigned label": "label 1"}
{"ordered residues": "GACCAACAGT", "assigned label": "label 1"}
{"ordered residues": "AGGAATCCGT", "assigned label": "label 1"}

---

- System: ATP;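 also: ATP exposure 15 min at 22 °C before imaging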
- protocol summary: switch fluorescence ratio, 500 uM ATP over buffer (Cy3 cluster intensity, sum of 5 cycles each) (fold (ratio)); higher = stronger signal-on switching upon ATP binding; sequences stand for … in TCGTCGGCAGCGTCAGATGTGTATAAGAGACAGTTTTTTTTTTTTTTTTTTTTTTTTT…TC
- run parameters: aptamer strand: ATP DNA aptamer (quencher-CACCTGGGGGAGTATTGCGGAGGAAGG + anchor), 100 nM annealed; ATP concentration: 500 uM
Entries annotated with measured switch fluorescence ratio

{"ordered residues": "TTTGATGCGT", "switch fluorescence ratio": 1.02}
{"ordered residues": "CAATGGGGTT", "switch fluorescence ratio": 1.02}
{"ordered residues": "TCCATGACCC", "switch fluorescence ratio": 1.01}
{"ordered residues": "GTTGGTTGTG", "switch fluorescence ratio": 0.981}
{"ordered residues": "CGGGGTGTGC", "switch fluorescence ratio": 1.01}
{"ordered residues": "GCTCTTTGCT", "switch fluorescence ratio": 0.988}
{"ordered residues": "GAGATTGTGA", "switch fluorescence ratio": 0.992}
{"ordered residues": "TTGTTTTCCT", "switch fluorescence ratio": 1.02}
{"ordered residues": "TAAGTGGAAA", "switch fluorescence ratio": 0.992}
{"ordered residues": "CAAGGGGTCG", "switch fluorescence ratio": 0.995}
{"ordered residues": "AGCGGATCGG", "switch fluorescence ratio": 0.991}
{"ordered residues": "TTTTTTCGTC", "switch fluorescence ratio": 1.02}
{"ordered residues": "CGATCGGCTG", "switch fluorescence ratio": 0.993}
{"ordered residues": "GAAGGGCGGA", "switch fluorescence ratio": 1.02}
{"ordered residues": "TAAAAAAAAT", "switch fluorescence ratio": 1.02}
{"ordered residues": "GGTGCTAGCG", "switch fluorescence ratio": 1.02}
{"ordered residues": "GGTATTTTTG", "switch fluorescence ratio": 0.992}
{"ordered residues": "CGCTTTGTGT", "switch fluorescence ratio": 0.973}
{"ordered residues": "TTGGGCCGTT", "switch fluorescence ratio": 1.01}
{"ordered residues": "AAGGGGACAG", "switch fluorescence ratio": 0.995}
{"ordered residues": "AGTTGAGGAA", "switch fluorescence ratio": 1}
{"ordered residues": "ATGTTGTGCT", "switch fluorescence ratio": 0.984}
{"ordered residues": "GTGCACGTTG", "switch fluorescence ratio": 1.01}
{"ordered residues": "TTGAGAAGTT", "switch fluorescence ratio": 1.01}
{"ordered residues": "TAATACGAGT", "switch fluorescence ratio": 1.02}
{"ordered residues": "TCGGCGGGAG", "switch fluorescence ratio": 1.01}
{"ordered residues": "CTCGGGGTGT", "switch fluorescence ratio": 1.02}
{"ordered residues": "TGAGAGAGGG", "switch fluorescence ratio": 0.983}
{"ordered residues": "ATTGGCGTAT", "switch fluorescence ratio": 0.987}
